B1: KRT33B (parent)
chain: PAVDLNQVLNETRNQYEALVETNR

Variants of: B1
ASSAY REMARKS: protein stability index of a GFP-peptide fusion (GPS, HEK-293T) (PSI 1-6); higher = more stable;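 note: lentivirally expressed fusions sorted by FACS into six bins by GFP to DsRed ratio, PSI derived from sequencing read proportions per bin multiplied by bin number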
TEST PARAMETERS: c terminus: a fixed tail appended
So basically: protein stability index at 4 or higher? That is fulfilled. Lower than 4? That is not fulfilled.

MACROMOLECULE SEQUENCE | CLASS NAME
PAVDLNAVLNETRNQYEALVETNR [Q7A] | not fulfilled
PAVDLNQVLNETRNQYEALPETNR [V20P] | fulfilled
PAVDLNQVLNETDNQYEALVETNR [R13D] | fulfilled
PAVDLNQVMNETRNQYEALVETNR [L9M] | fulfilled
PAVDLNQVKNETRNQYEALVETNR [L9K] | fulfilled
PAVDLNQVLNETRNQYEAWVETNR [L19W] | fulfilled
PAVDLNQVDNETRNQYEALVETNR [L9D] | fulfilled
PAVDLNQVLNETRNQYEACVETNR [L19C] | fulfilled
PAVDLNQVLNETRNQYEALVENNR [T22N] | fulfilled
PAVDLNQVGNETRNQYEALVETNR [L9G] | fulfilled
PAVDLNQVLNETRNQYEALVLTNR [E21L] | not fulfilled
PAVDLNQVLNETYNQYEALVETNR [R13Y] | not fulfilled
PAVDLNQVLNETHNQYEALVETNR [R13H] | fulfilled
PAVCLNQVLNETRNQYEALVETNR [D4C] | not fulfilled
PAVDLNQVLNEKRNQYEALVETNR [T12K] | fulfilled
PAVDLNQVLNETRNQYERLVETNR [A18R] | not fulfilled
PRVDLNQVLNETRNQYEALVETNR [A2R] | not fulfilled
